Target: Cellular tumor antigen p53 (Homo sapiens) (UniProt P04637)
Sequence (P04637 whole entry, looked up): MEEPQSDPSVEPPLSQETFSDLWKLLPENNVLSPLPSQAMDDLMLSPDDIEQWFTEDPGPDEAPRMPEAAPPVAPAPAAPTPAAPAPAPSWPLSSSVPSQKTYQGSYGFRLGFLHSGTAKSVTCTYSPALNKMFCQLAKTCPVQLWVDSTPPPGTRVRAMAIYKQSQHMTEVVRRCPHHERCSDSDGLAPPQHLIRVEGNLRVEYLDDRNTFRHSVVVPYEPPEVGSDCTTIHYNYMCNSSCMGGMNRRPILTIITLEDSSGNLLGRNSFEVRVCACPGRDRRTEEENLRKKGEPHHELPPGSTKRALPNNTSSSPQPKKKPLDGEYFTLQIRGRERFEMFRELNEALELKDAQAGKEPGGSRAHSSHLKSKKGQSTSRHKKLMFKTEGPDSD
Assay: TOX21_p53_BLA_p5_ratio: Tox21 HCT-116 p53 Agonism Beta-lactamase Assay, Ratio, Phase 5 (AID 2283599)
Results filed as inconclusive are left out. Activity calls are given as the source filed them. The calls were made as follows: active = hit-call score of the fitted dose curve at least 0.9, where 1 is the maximum; inconclusive = response in the unintended direction; inactive = score below 0.9.
Outcome codes: active, inactive

INSERT INTO results (compound, target, assigned_category) VALUES
  ('CNC(=O)N(C)c1nnc(C(C)(C)C)s1', 'Cellular tumor antigen p53 (Homo sapiens) (UniProt P04637)', 'inactive'),
  ('O=C(Nc1ccccc1-c1ccc(Cl)cc1)c1cccnc1Cl', 'Cellular tumor antigen p53 (Homo sapiens) (UniProt P04637)', 'inactive'),
  ('CSC(=O)c1c(C(F)F)nc(C(F)(F)F)c(C(=O)SC)c1CC(C)C', 'Cellular tumor antigen p53 (Homo sapiens) (UniProt P04637)', 'inactive'),
  ('N#Cc1c[nH]cc1-c1cccc2c1OC(F)(F)O2', 'Cellular tumor antigen p53 (Homo sapiens) (UniProt P04637)', 'active'),
  ('CC(C)Oc1cccc(NC(=O)c2ccccc2C(F)(F)F)c1', 'Cellular tumor antigen p53 (Homo sapiens) (UniProt P04637)', 'inactive'),
  ('Cn1c(-c2ccccc2)cc(-c2ccccc2)[n+]1C', 'Cellular tumor antigen p53 (Homo sapiens) (UniProt P04637)', 'inactive'),
  ('C=C(C)CN(CC)c1c([N+](=O)[O-])cc(C(F)(F)F)cc1[N+](=O)[O-]', 'Cellular tumor antigen p53 (Homo sapiens) (UniProt P04637)', 'inactive'),
  ('CC1(C)C(C(=O)OC(C#N)c2cccc(Oc3ccccc3)c2)C1(C)C (configuration not stated)', 'Cellular tumor antigen p53 (Homo sapiens) (UniProt P04637)', 'inactive'),
  ('CNC(=O)Oc1cccc2ccccc12', 'Cellular tumor antigen p53 (Homo sapiens) (UniProt P04637)', 'inactive'),
  ('CN=C=S', 'Cellular tumor antigen p53 (Homo sapiens) (UniProt P04637)', 'inactive'),
  ('CC1(C)CON(Cc2ccccc2Cl)C1=O', 'Cellular tumor antigen p53 (Homo sapiens) (UniProt P04637)', 'inactive'),
  ('COC(=O)c1c(C(F)F)nc(C(F)(F)F)c(C2=NCCS2)c1CC(C)C', 'Cellular tumor antigen p53 (Homo sapiens) (UniProt P04637)', 'inactive');

###

Test: BSK_LPS_SRB: Viability Assessment in the BioMAP Diversity Plus: LPS Assay (AID 2283079);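 also: total protein by sulforhodamine B absorbance as a cytotoxicity measure; measured one day after compound addition; fitted in both directions against DMSO so loss or gain of signal counts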
Conditions: primary human HUVEC with PBMC
The source made the active and inactive calls. The calls were made as follows: active = hit-call score of the fitted dose curve at least 0.9, where 1 is the maximum; inactive = score below 0.9.
Outcome codes: active, inactive

INSERT INTO assay_data (compound, assigned_category) VALUES
  ('CC1(C)CON(Cc2ccccc2Cl)C1=O', 'inactive'),
  ('CCOc1nc(F)cc2nc(S(=O)(=O)Nc3c(Cl)cccc3Cl)nn12', 'inactive'),
  ('CNC(=O)Oc1cccc2ccccc12', 'active'),
  ('CCN(CC)C(=O)C(C)Oc1cccc2ccccc12 (stereo unspecified)', 'inactive'),
  ('CCCCOCN(C(=O)CCl)c1c(CC)cccc1CC', 'active'),
  ('CCNP(=S)(OC)O/C(C)=C/C(=O)OC(C)C (stereo unspecified)', 'inactive'),
  ('COC(=O)N(C(=O)N1CO[C@@]2(C(=O)OC)Cc3cc(Cl)ccc3C2=N1)c1ccc(OC(F)(F)F)cc1', 'active'),
  ('CCCCC(C#N)(Cn1cncn1)c1ccc(Cl)cc1 (stereo unspecified)', 'inactive'),
  ('CCC(C)n1c(=O)[nH]c(C)c(Br)c1=O (stereo unspecified)', 'inactive'),
  ('CSC(=O)c1c(C(F)F)nc(C(F)(F)F)c(C(=O)SC)c1CC(C)C', 'active'),
  ('Cc1ccc(N=CN(C)C=Nc2ccc(C)cc2C)c(C)c1', 'active'),
  ('CCNC(=O)NC(=O)C(C#N)=NOC', 'inactive'),
  ('COCC(=O)N(c1c(C)cccc1C)C(C)C(=O)OC (stereo unspecified)', 'inactive'),
  ('COC(=O)c1c(C(F)F)nc(C(F)(F)F)c(C2=NCCS2)c1CC(C)C', 'active'),
  ('Clc1nc(Cl)nc(Nc2ccccc2Cl)n1', 'inactive'),
  ('COc1ccc(-c2ccccc2)cc1NNC(=O)OC(C)C', 'inactive'),
  ('CC(C)N1C(=O)c2ccccc2NS1(=O)=O', 'inactive'),
  ('Cc1nc(N(C)C)nc(OC(=O)N(C)C)c1C', 'inactive'),
  ('Nc1c(Cl)c(Cl)nc(C(=O)O)c1Cl', 'inactive'),
  ('CC(C)NC(=O)N1CC(=O)N(c2cc(Cl)cc(Cl)c2)C1=O', 'inactive'),
  ('Cc1cnc(C2=NC(C)(C(C)C)C(=O)N2)c(C(=O)O)c1 (stereo unspecified)', 'inactive'),
  ('COCc1cnc(C2=NC(C)(C(C)C)C(=O)N2)c(C(=O)O)c1 (stereo unspecified)', 'inactive'),
  ('O=c1n(Cl)c(=O)n(Cl)c(=O)n1Cl', 'inactive'),
  ('CN/C(=N\[N+](=O)[O-])NCc1cnc(Cl)s1', 'inactive'),
  ('N#CN=C1SCCN1Cc1ccc(Cl)nc1', 'inactive'),
  ('CC(C)Oc1cccc(NC(=O)c2ccccc2C(F)(F)F)c1', 'active');

###

Target: human CYP1A2, CYP1A2 (gene 1544)
Test: NVS_ADME_hCYP1A2: NovaScreen (NVS) CYP450-related Enzyme Activity (ADME) Assay for human CYP1A2 (AID 2283102);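 also: fluorescence from turnover of a fluorogenic substrate by recombinant insect-cell CYP1A2; potency for inhibition since loss of fluorescence marks reduced CYP1A2 activity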
Procedure: NVS_ADME_hCYP1A2 is a biochemical, single-readout assay that uses extracted gene-proteins from insect cells in a cell-free assay. Measurements were taken 0.5 hour after chemical dosing in a 96-well plate.NVS_ADME_hCYP1A2 is one of one assay component(s) measured or calculated from the NVS_ADME_hCYP1A2 assay. […] This assay endpoint, NVS_ADME_hCYP1A2, was analyzed in the positive analysis fitting direction relative to Acetonitrile as the negative control and baseline of activity. […]
Calls of active or inactive are those of the source. How the source made its calls: active means hit-call score of the fitted dose curve at least 0.9, where 1 is the maximum; inconclusive means response in the unintended direction; inactive means score below 0.9.
assay_readout: AC50

INSERT INTO measurements (compound, obs_value) VALUES
  ('CC(C)NC(=O)N1CC(=O)N(c2cc(Cl)cc(Cl)c2)C1=O', '5.75 µM (active)'),
  ('COP(=S)(OC)Oc1ccc([N+](=O)[O-])c(C)c1', '0.516 µM (active)'),
  ('CNC(=O)Oc1cccc2ccccc12', '5.35 µM (active)'),
  ('N#Cc1c[nH]cc1-c1cccc2c1OC(F)(F)O2', '0.353 µM (active)'),
  ('CCNP(=S)(OC)O/C(C)=C/C(=O)OC(C)C (stereo not given)', '5.76 µM (active)');

###

Assay: BSK_hDFCGF_Proliferation: Cell Proliferation Assessment in the BioMAP Diversity Plus: hDFCGF Assay (AID 2283059);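 also: curves fitted for both rise and fall of signal versus DMSO baseline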
Settings: primary human foreskin fibroblasts
The source made the active and inactive calls. Rule for the calls: active = hit-call score of the fitted dose curve at least 0.9, where 1 is the maximum; inactive = score below 0.9.
Outcome codes: y = active, n = inactive

INSERT INTO results (molecule, assigned_category) VALUES
  ('COC(=O)NS(=O)(=O)c1ccc(N)cc1', 'n'),
  ('CCC(C)n1c(=O)[nH]c(C)c(Br)c1=O (stereo unspecified)', 'n'),
  ('CS(=O)(=O)c1ccc(C(=O)C2C(=O)CCCC2=O)c([N+](=O)[O-])c1', 'n'),
  ('CNC(=O)Oc1cccc2ccccc12', 'y'),
  ('COC(=O)c1c(C(F)F)nc(C(F)(F)F)c(C2=NCCS2)c1CC(C)C', 'n'),
  ('CC1(C)CON(Cc2ccccc2Cl)C1=O', 'n'),
  ('CC1(C)C(C=C(Cl)Cl)C1C(=O)OC(C#N)c1cccc(Oc2ccccc2)c1 (stereo unspecified)', 'n'),
  ('CC(C)N1C(=O)N(c2ccccc2)CSC1=NC(C)(C)C', 'y'),
  ('CC(C)NC(=O)N1CC(=O)N(c2cc(Cl)cc(Cl)c2)C1=O', 'n'),
  ('CSC(=O)c1c(C(F)F)nc(C(F)(F)F)c(C(=O)SC)c1CC(C)C', 'y'),
  ('CCOc1cc(C(C)(C)C)ccc1C1COC(c2c(F)cccc2F)=N1 (stereo unspecified)', 'y');

###

Read-out: Cyclin D1 (CCND1), CCND1 (gene 595)
Assay: LTEA_HepaRG_CCND1: Life Technologies and Expression Analysis (LTEA) Assay for Cyclin D1 (CCND1) using HepaRG (AID 2283451);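 as to AC50: differentiated human HepaRG liver cells in serum-free induction medium; TaqMan qRT-PCR transcript level normalised to ACTB GAPDH and POLR2A housekeeping genes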
Conditions: mRNA level, 48 h; actives raise or lower the signal
Calls of active or inactive are those of the source. The calls were made as follows: active = hit-call score of the fitted dose curve at least 0.9, where 1 is the maximum; inactive = score below 0.9.
assay_readout: AC50

INSERT INTO results (molecule, assay_readout, obs_value) VALUES
  ('Cn1c(-c2ccccc2)cc(-c2ccccc2)[n+]1C', 'AC50', '75.6 µM (active)'),
  ('CCCCOCN(C(=O)CCl)c1c(CC)cccc1CC', 'AC50', 'inactive'),
  ('O=C(O)c1c(Cl)ccc2cc(Cl)cnc12', 'AC50', 'inactive'),
  ('CCNP(=S)(OC)O/C(C)=C/C(=O)OC(C)C (stereo unspecified)', 'AC50', 'inactive'),
  ('COCc1cnc(C2=NC(C)(C(C)C)C(=O)N2)c(C(=O)O)c1 (stereo unspecified)', 'AC50', 'inactive'),
  ('CCOP(=S)(OCC)Oc1nc(Cl)n(C(C)C)n1', 'AC50', 'inactive');
